- Test: in vitro
- Assay conditions: human, hela cells, % viability
For each of the compounds below, state its viability at 28.5 h, 10 µM.
Quick reminder: number only, in %, skip the unit.

[Q] Please look at this compound and report its viability at 28.5 h, 10 µM: CCC1CCCCN1C(=O)c1cc(C)oc1C (stereo not drawn)
[A] 105

[Q] Provide one value: measured viability at 28.5 h, 10 µM of CC(C)COC(=O)N1CCC2(CC1)CC(=O)N(Cc1ccc(S(C)(=O)=O)cc1)C2=O
[A] 103

[Q] Tell me measured viability at 28.5 h, 10 µM for NC(=O)C1(Cc2cccc(-c3cccs3)c2)CCN(C(=O)CCc2ccccc2)CC1 please.
[A] 91.3

[Q] Using known records, supply viability at 28.5 h, 10 µM for COc1ccc(Oc2nccc(-c3ccccc3)c2C#N)cc1
[A] 98.7

[Q] Provide viability at 28.5 h, 10 µM value for the following compound: N#Cc1ccc(NCC(=O)Nc2ncccc2O)cc1
[A] 88.7

[Q] Specify reported viability at 28.5 h, 10 µM for the compound shown: Cc1csc2nc(CN3CCN(C(=O)c4ccccc4)CC3)cc(=O)n12
[A] 110

[Q] Tell me measured viability at 28.5 h, 10 µM for COC(C)CN(C)Cc1c(C)[nH]c2ccc(F)cc12 (stereo not drawn) please.
[A] 84.5

[Q] Quick one: give measured viability at 28.5 h, 10 µM for Cc1noc(-c2ccccc2)c1CN1CCCN(S(=O)(=O)c2ccc(C(F)(F)F)cc2Cl)CC1
[A] 103

[Q] State, in one line, measured viability at 28.5 h, 10 µM of CC1CCc2c(sc3nc(SCC(=O)NC(c4ccccc4)c4ccccc4)nc(N)c23)C1 (stereo not drawn)
[A] 91.1
